Consider the following binders; for each one, report its Bmax.
Target: T1, recombinant human LILRB2 protein (human, UniProt Q8N423 22-460, limits assumed)
T1 construct: also called recombinant LILRB2 protein
T1 sequence (Q8N423 22-460 limits assumed): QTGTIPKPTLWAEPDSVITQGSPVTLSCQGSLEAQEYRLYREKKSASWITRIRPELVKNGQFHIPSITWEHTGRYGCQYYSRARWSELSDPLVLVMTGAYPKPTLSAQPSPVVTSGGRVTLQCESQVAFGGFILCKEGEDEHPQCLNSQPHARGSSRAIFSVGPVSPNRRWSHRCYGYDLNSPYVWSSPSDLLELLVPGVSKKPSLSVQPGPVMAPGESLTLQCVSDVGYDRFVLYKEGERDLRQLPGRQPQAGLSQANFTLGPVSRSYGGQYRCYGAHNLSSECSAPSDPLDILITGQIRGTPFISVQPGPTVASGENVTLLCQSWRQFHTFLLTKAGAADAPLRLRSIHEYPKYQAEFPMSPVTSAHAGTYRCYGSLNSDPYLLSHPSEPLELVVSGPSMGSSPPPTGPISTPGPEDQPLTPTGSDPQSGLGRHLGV
Assay: ELISA, coated recombinant human LILRB2
Set-up: unit not given here

{"binder": "Antibody 2E1_FC3 (antibody, V domains shown) VH: EVQLVESGGGLVQPGGSLRLSCAVSGYSITSGYYWNWIRQAPGKGLEWVAYISYDGNTNYNPSLKNRFTISRDTSKNTFYLQMNSLRAEDTAVYYCAREESTMITTAWFAYWGQGTLVTVSS VL: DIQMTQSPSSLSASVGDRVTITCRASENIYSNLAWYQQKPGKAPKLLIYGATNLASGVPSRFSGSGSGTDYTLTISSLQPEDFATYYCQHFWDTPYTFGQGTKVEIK", "Bmax": 1.29}

Give Bmax for all binders that follow.
1. Antibody 2E1_GB1 (antibody, V domains shown) VH: EVQLVESGGGLVQPGGSLRLSCAVSGYSITSGYSWNWIRQAPGKGLEWVAYISYDGNNNYNPSLKNRFTISRDTSKNTFYLQMNSLRAEDTAVYYCAREESTMITTAWFAYWGQGTLVTVSS VL: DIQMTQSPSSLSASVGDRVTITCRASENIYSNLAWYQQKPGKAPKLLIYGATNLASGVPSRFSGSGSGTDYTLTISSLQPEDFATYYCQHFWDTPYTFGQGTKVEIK
2. Antibody 2E1_GA1 (antibody, V domains shown) VH: EVQLVESGGGLVQPGGSLRLSCAVSGYSITSGYYWWWIRQAPGKGLEWVAYISYDGNNNYNPSLKNRFTISRDTSKNTFYLQMNSLRAEDTAVYYCAREESTMITTAWFAYWGQGTLVTVSS VL: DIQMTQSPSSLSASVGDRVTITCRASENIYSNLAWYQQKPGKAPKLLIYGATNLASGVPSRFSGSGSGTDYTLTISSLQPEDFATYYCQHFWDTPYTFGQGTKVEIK

### Response
1. 1.01
2. 1.62
